- System: Staphylococcus aureus
- experiment description: Concentration that inhibits 50% growth of methicillin resistant Staphylococcus aureus in the microdilution wells; IA=Inactive
- Assay type: functional, organism-based
measurement type: IC50

[[record]]
structure_smiles_string = "O=C(Nc1ccccc1-c1ccccc1)Nc1cc(-c2ccccc2)nn1-c1ccc(C(F)(F)F)cc1"
reading = "Not Active"

[[record]]
structure_smiles_string = "Cc1cc(C)cc(NC(=O)Nc2cc(-c3ccccc3)nn2-c2ccc(C(F)(F)F)cc2)c1"
reading = "Not Active"

[[record]]
structure_smiles_string = "Cc1ccccc1NC(=O)Nc1cc(-c2ccccc2)nn1-c1ccc(C(F)(F)F)cc1"
reading = "Not Active"

[[record]]
structure_smiles_string = "O=C(Nc1ccc(C(F)(F)F)cc1Cl)Nc1cc(-c2ccccc2)nn1-c1ccc(C(F)(F)F)cc1"
reading = "Not Active"

